# Subject of test: KAT-5 (Homo sapiens (Human), UniProt Q92993)
# Sequence (Q92993 other isoform, or with tags, fused parts or gaps): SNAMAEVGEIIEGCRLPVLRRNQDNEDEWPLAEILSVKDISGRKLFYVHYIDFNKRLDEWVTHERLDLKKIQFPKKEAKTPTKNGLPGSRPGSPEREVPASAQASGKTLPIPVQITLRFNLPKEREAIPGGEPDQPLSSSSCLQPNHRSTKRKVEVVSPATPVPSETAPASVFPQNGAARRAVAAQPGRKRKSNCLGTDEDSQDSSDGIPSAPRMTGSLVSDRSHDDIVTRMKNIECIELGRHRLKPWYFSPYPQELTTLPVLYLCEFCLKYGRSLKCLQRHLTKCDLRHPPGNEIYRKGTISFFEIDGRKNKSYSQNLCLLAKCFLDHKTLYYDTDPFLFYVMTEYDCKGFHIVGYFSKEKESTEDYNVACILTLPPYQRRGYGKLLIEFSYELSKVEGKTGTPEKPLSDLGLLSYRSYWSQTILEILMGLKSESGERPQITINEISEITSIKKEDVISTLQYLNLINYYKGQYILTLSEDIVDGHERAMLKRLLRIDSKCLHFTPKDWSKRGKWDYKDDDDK
# Experiment summary: KAT-5 biochemical inhibition assay (SAMDI mass spectrometry)
Experimental endpoint: IC50

• CCCS(=O)(=O)N1CCCC(CS(=O)(=O)NNC(=O)c2cc(-c3cn(C)cn3)cc(Cl)c2F)C1 (stereo not shown) = < 10 µM
• Cn1cnc(-c2cc(Cl)c(F)c(C(=O)NNS(=O)(=O)C[C@H]3CCC[C@H](OCc4ccccc4)C3)c2)c1 = < 10 µM
• CCNC(=O)N(C)[C@H]1CC[C@H](CS(=O)(=O)NNC(=O)c2cc(-c3cn(C)cn3)cc(Cl)c2F)CC1 = < 10 µM
• O=C(NNS(=O)(=O)CC1CCCCC1)c1cc(-n2ccnn2)cc(Cl)c1F = 10 to 50 µM
• Cc1ncc(-c2cc(Cl)c(F)c(C(=O)NNS(=O)(=O)CC3CCOCC3)c2)n1C = > 100 µM
• Cn1cnc(-c2cc(Cl)c(F)c(C(=O)NNS(=O)(=O)C[C@H]3C[C@@H](N)C3)c2)c1 = 10 to 50 µM
• CNC(=O)N[C@H]1CC[C@H](CS(=O)(=O)NNC(=O)c2cc(-c3cn(C)cn3)cc(Cl)c2F)CC1 = < 10 µM
• O=C(NNS(=O)(=O)CC1CCOCC1)c1cc(-n2cccn2)cc(Cl)c1F = 10 to 50 µM
• CN(C)C(=O)N(C)[C@H]1CC[C@@H](CS(=O)(=O)NNC(=O)c2cc(-c3cn(C)cn3)cc(Cl)c2F)CC1 = < 10 µM
• CC(=O)NCc1c(-c2cn(C)cn2)cc(C(=O)NNS(=O)(=O)CC2CCCCC2)c(F)c1Cl = > 100 µM
• Cn1cnc(-c2cc(Cl)c(F)c(C(=O)NNS(=O)(=O)C[C@H]3CC[C@@H](NS(C)(=O)=O)CC3)c2)c1 = < 10 µM
• Cn1cnc(-c2cc(Cl)c(F)c(C(=O)NNS(=O)(=O)C[C@H]3CC[C@H](NC(=O)C4CCC4)CC3)c2)c1 = < 10 µM
• COCC(=O)N1CCCC(CS(=O)(=O)NNC(=O)c2cc(-c3cn(CCO)cn3)cc(C)c2F)C1 (stereo not shown) = 10 to 50 µM
